# assay.procedure: mitochondrial membrane potential change in A549 cells, profiling panel, cell-based, JC-1 fluorescence, basal, 24 h, 100 nL (AID 1138);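 note: A549 lung adenocarcinoma cells under basal conditions with no added stimulus; test concentration not given here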
# condition: higher = more signal
# binarize z-score: threshold -0.3 inclusive, high side T, low side F

Before answering, review these 6 worked examples.
COc1ccc(O[C@@H]2[C@H](O)CO[C@@H]2C=Cc2ccccc2)cc1 | F
COc1cccc([C@H]2Oc3ccc(OC)cc3C(=NO[C@@H]3O[C@H](COC(C)=O)[C@@H](OC(C)=O)[C@H](OC(C)=O)[C@H]3OC(C)=O)[C@@H]2O)c1 | T
C[C@@H](c1ccccc1)N1C(=O)[C@H]2[C@H]3[C@H](O)[C@H](O)CC(=NO[C@@H]4O[C@H](CO)[C@@H](O)[C@H](O)[C@H]4O)[C@H]3CC[C@H]2C1=O | T
COC(=O)[C@@H]1CC[C@H](C)[C@@H](c2ccc(C)cc2)N1C(=O)c1ccc(C=NOCC[C@@H]2C=C[C@H](OC(C)=O)[C@@H](COC(C)=O)O2)cc1 | F
COC(=O)[C@H]1O[C@@H](c2c(OC)c(OC)c(C)c(OC)c2OC)[C@H](C)[C@@H](O)[C@H]1C | T
CC(C)(C)N1C(=O)[C@H]2[C@H]3[C@H](O)[C@H](O)CC(=NOCc4ccccc4)[C@H]3CC[C@H]2C1=O | F

# ---- query molecule ----
Check this molecule for z-score at or above -0.3: O=C1[C@H]2[C@H]3[C@H](O)[C@H](O)CC(=NOCc4ccccc4)[C@H]3CC[C@H]2C(=O)N1Cc1ccc2c(c1)OCO2 F

----------
# assay.procedure: small-molecule binders of probe aNOTCH2, primary screen, biochemical, small-molecule microarray, 635/667 nm fluorescence (AID 1121);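 note: score merges feature fluorescence read at 667 nm with its signal to noise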
# condition: higher = more signal
outcome.measure: composite z-score

CO[C@H](C1CCCCC1)[C@H](C)C=CCC(=O)OCCCc1ccccc1 | -0.0751
CCOC(=O)NN=C1C[C@@H](O)[C@@H](O)[C@@H]2[C@@H]3C(=O)N(Cc4ccc5c(c4)OCO5)C(=O)[C@@H]3CC[C@H]12 | -0.14

Provide composite z-score value for the following molecule: CO[C@H]1COC(=O)CC=C[C@@H](C)[C@H](OC)COC(=O)CCC[C@@H]1C -0.118

Provide composite z-score value for the following molecule: O=C1CCCC=C1C(O)CCCCBr (stereo unspecified) 0.0377

Provide composite z-score value for the following molecule: CO[C@@H]1C=CCC(=O)N2CCC[C@H]2C(=O)OC[C@@H](C)C(=O)OC[C@H]1C -0.0109

Provide composite z-score value for the following molecule: CCOC(=O)[C@H](Cc1ccccc1)NC(=O)CCC1CC(OC(=O)NCCc2ccc(F)cc2)CC2(CCCC(COC(=O)NCC3CCCCC3)O2)O1 (stereo partly specified) -0.0294

Provide composite z-score value for the following molecule: CCN1C(=O)[C@H]2[C@H]3[C@H](O)[C@H](O)CC(=O)[C@H]3CC[C@H]2C1=O -0.0793

Provide composite z-score value for the following molecule: CCOC(=O)[C@H](CC(C)C)NC(=O)CCC1CC(OC(=O)NCc2cccc3ccccc23)CC2(CCCC(COC(=O)NCCOC)O2)O1 (stereo partly specified) -0.0195

Provide composite z-score value for the following molecule: CC(=O)OC[C@H]1O[C@H](C#Cc2ccccc2)C=C[C@@H]1OC(C)=O -0.136

Provide composite z-score value for the following molecule: CO[C@H]1COC(=O)[C@@H](C)COC(=O)[C@@H](OCc2ccccc2)C=C[C@@H]1C -0.115

Provide composite z-score value for the following molecule: C#CCCCON=C1[C@H]2CCn3c(=O)n(-c4ccccc4)c(=O)n3[C@H]2[C@H](O)[C@@H]2O[C@H]12 -0.142

----------
# assay.procedure: A549 lung cancer cell viability effects, profiling panel, resazurin fluorescence, 24 h, PK04 Diversity Set (AID 1171); note: test concentration not given here
# condition: higher = more signal, called active from +8 up or from −8 down
# binarize z-score: threshold -0.02 inclusive, high side true, low side false

Before answering, review these 10 worked examples.
CCc1cc2c(nc1CC)CCN(CCC(C)=NOC[C@H]1O[C@H](c3ccccc3)C=C[C@@H]1Oc1ccc(OC)cc1)C2 | true
CCOC(=O)NN=C1C[C@@H](O)[C@@H](O)[C@@H]2[C@@H]3C(=O)N(Cc4ccccc4)C(=O)[C@@H]3CC[C@H]12 | true
COC(=O)[C@H](C)NC(=O)CCC1CC(OC(=O)NCCc2ccc(F)cc2)CC2(CCCC(COC(=O)NCc3cccc(C(F)(F)F)c3)O2)O1 (stereo not given in full) | false
O=c1n(Cc2cc3c(cc2Cl)OCO3)c(=O)n2n1CC[C@@H]1C(=NOCc3ccccc3)[C@H]3O[C@H]3[C@@H](O)[C@@H]12 | false
O=c1n(Cc2cc3c(cc2Cl)OCO3)c(=O)n2n1CC[C@@H]1C(=NOC[C@@H](O)COCc3ccco3)[C@H]3O[C@H]3[C@@H](O)[C@@H]12 | false
CC(C)CON=C1C[C@@H](O)[C@@H](O)[C@@H]2[C@@H]3C(=O)N(c4cccc(Oc5ccccc5)c4)C(=O)[C@@H]3CC[C@@H]12 | false
Cc1cc2c(nc1C)CCCCN2CC(C)ON=C[C@@H](C)[C@H](OCc1ccccc1)C(C)C (stereo not given in full) | true
Cc1cc2c(nc1C)CCCCN2CC(C)ON=C1[C@H]2CCn3c(=O)n(-c4ccccc4)c(=O)n3[C@H]2[C@H](O)[C@@H]2O[C@H]12 (stereo not given in full) | false
CO[C@@H]1C=CCC(=O)N2CCC[C@H]2C(=O)OC[C@@H](C)C(=O)OC[C@H]1C | true
CCOC(=O)C1=NO[C@]2(C=C(Br)C3(OCCCO3)[C@H]3O[C@H]32)C1 | true

Check this molecule for z-score at or above -0.02: CC(=O)OC[C@H]1O[C@H](CCON=C2[C@H]3CCn4c(=O)n(-c5ccccc5)c(=O)n4[C@H]3[C@H](O)[C@@H]3O[C@H]23)C=C[C@@H]1OC(C)=O false

Check this molecule for z-score at or above -0.02: CC[C@@H](c1ccccc1)n1c(=O)n2n(c1=O)[C@H]1[C@H](O)[C@@H]3O[C@@H]3C(=NOC[C@@H](O)COCc3ccco3)[C@H]1CC2 true

Check this molecule for z-score at or above -0.02: CO[C@@H]1COC(=O)[C@@H](C)NC(=O)CC=C[C@@H](C)[C@H](NS(=O)(=O)c2ccc(C)cc2)COC(=O)[C@H](C)NC(=O)CC=C[C@H]1C true

----------
# assay.procedure: binders of probe aFSTL3 on microarray, primary screen, stem cell growth factor project, biochemical, small-molecule microarray, fluorescence 635/667 (AID 1064);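 note: measures binding of the biotinylated anti-FSTL3 antibody to printed compounds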
# condition: higher = more signal
outcome.measure: composite z-score
Keep the answer to the number alone.

The following compounds have reported results that may help.
CCOC(=O)[C@H](Cc1ccccc1)NC(=O)CCC1CC(OC(=O)NCc2cccc3ccccc23)CC2(CCCC(COC(=O)NCCC(C)C)O2)O1 (stereo partly drawn) | -0.499
C=CC[C@@H]1C=C[C@H](ON=C2[C@H]3CCn4c(=O)n(-c5ccccc5)c(=O)n4[C@H]3[C@H](O)[C@@H]3O[C@H]23)[C@@H](CO)O1 | -0.356
COc1ccc(O[C@@H]2[C@H](O)CO[C@@H]2C=Cc2ccccc2)cc1 | -0.277

Provide composite z-score value for the following compound: O=C(NN=C1C[C@@H](O)[C@@H](O)[C@@H]2[C@@H]3C(=O)N(Cc4ccccc4)C(=O)[C@@H]3CC[C@@H]12)OCc1ccccc1 -0.404

Provide composite z-score value for the following compound: CCOC(=O)[C@H](CC(C)C)NC(=O)CCC1CC(OC(=O)NCc2cccc3ccccc23)CC2(CCCC(COC(=O)NCCCN3CCCC3=O)O2)O1 (stereo partly drawn) -0.494

Provide composite z-score value for the following compound: C[C@H]1COC(=O)[C@@H]2CCCN2C(=O)[C@@H](C)COC(=O)[C@H](Cc2ccccc2)NC1=O -0.596

Provide composite z-score value for the following compound: CO[C@@H]1COC(=O)[C@H](CCSC)NC(=O)CC=C[C@@H](C)COC(=O)[C@H](C)NC(=O)CC=C[C@H]1C -0.605

Provide composite z-score value for the following compound: O=C1[C@H]2[C@H]3[C@H](O)[C@H](O)CC(=NOC[C@@H](O)COCc4ccco4)[C@@H]3CC[C@H]2C(=O)N1C[C@@H]1CCCO1 -0.861

Provide composite z-score value for the following compound: C[C@@H]1CC[C@H]2C(=O)O[C@@H](Cc3ccccc3)CN2[C@H]1c1ccc(Br)cc1 -0.395

----------
# assay.procedure: basal RPMI8226 mitochondrial membrane potential changes, profiling panel, cell-based, JC-1 fluorescence, 24 h, 100 nL compound (AID 1169); note: test concentration not given here
# condition: RPMI8226 myeloma, JC-1 mitochondrial potential fluorescence, higher = more signal
# binarize z-score: threshold 0.07 inclusive, high side Condition met, low side Condition not met

CO[C@H]1COC(=O)CCC[C@@H](C)[C@H](OC)COC(=O)[C@@H](C)NC(=O)CC=C[C@@H]1C | Condition met
C=C(C)C(=O)OCC1CN2[C@@H](CC[C@@H](C)[C@@H]2c2ccc(Br)cc2)C(=O)O1 (some centres not stated) | Condition not met
O=C(NN=C1C[C@@H](O)[C@@H](O)[C@@H]2[C@@H]3C(=O)N(C4CCCCC4)C(=O)[C@@H]3CC[C@@H]12)OCc1ccccc1 | Condition not met

Check this molecule for z-score at or above 0.07: COc1ccc(O[C@H]2C=C[C@@H](c3ccccc3)O[C@@H]2COC(=O)CCC(C)=NO[C@@H]2O[C@H](COC(C)=O)[C@@H](OC(C)=O)[C@H](OC(C)=O)[C@H]2OC(C)=O)cc1 Condition met

Check this molecule for z-score at or above 0.07: COC(=O)[C@H](C)NC(=O)CCC1CC(OC(=O)NCc2cccc3ccccc23)CC2(CCCC(COC(=O)NCC(c3ccccc3)c3ccccc3)O2)O1 (some centres not stated) Condition not met

Check this molecule for z-score at or above 0.07: COC(=O)C=CCCc1coc(C=CCNC(=O)OC)n1 Condition met

Check this molecule for z-score at or above 0.07: CC(C)CON=C1C[C@@H](O)[C@@H](O)[C@@H]2[C@@H]3C(=O)N(c4cccc(Oc5ccccc5)c4)C(=O)[C@@H]3CC[C@@H]12 Condition met
